Values from the supplement of paper PMC4862054

Test system: HCC1143
Conditions: 72 h
TEST READOUT: EC50, CellTiter-Glo (nM)
Hi! Could you send only the number? It should be in nM, unit omitted.

Below: 3 compounds and their reported EC50, CellTiter-Glo.
structure_smiles=CC(=O)[C@]1(O)Cc2c(O)c3c(c(O)c2[C@@H](O[C@H]2C[C@H](N)[C@H](O)[C@H](C)O2)C1)C(=O)c1ccccc1C3=O value_reported=531
structure_smiles=CCNC(=O)c1noc(-c2cc(C(C)C)c(O)cc2O)c1-c1ccc(CN2CCOCC2)cc1 value_reported=38.7
structure_smiles=CO[C@@H]1[C@H](N(C)C(=O)c2ccccc2)C[C@H]2O[C@]1(C)n1c3ccccc3c3c4c(c5c6ccccc6n2c5c31)C(=O)NC4 value_reported=414

Task: Consider the compound COc1cc(Nc2c(C#N)cnc3cc(OCCCN4CCN(C)CC4)c(OC)cc23)c(Cl)cc1Cl and give its recorded EC50, CellTiter-Glo.
Output: 1440
